System: G-clamp-N3 (biotin conjugate)
Protocol: pull-down binding Z-score (relative to library population); higher = stronger binding
Test context: RNA library: Library-1 (pre-miRNA loops + repeats)
Just so you know, the groups by pull-down binding Z-score go like this: low (below -0.9), moderate (-0.9 to below 0.7), high (0.7 or more)

Field: example entries. Status: answers known.
Item sequence: AGUAUGGAUUAAAUUUAUAUUUUCCUCGAUACU [hsa-mir-8084]
Qualitative label: moderate
//
Item sequence: UGCGUUAGGAUUUCUGUAUCAUCCUCCUAACGCA [hsa-mir-3166]
Qualitative label: high
//
Item sequence: AGCCUCCAAACCUGUAGACAGGGUCAUGCAGUACUAGGGGCGAG [hsa-mir-4478]
Qualitative label: moderate
//
Item sequence: ACCACCCAGGCCUUAUGGCUUCAUA [hsa-mir-7974]
Qualitative label: low
//
Item sequence: UGGCUGCUUGGGUCAAGUCAGCAGCCA [hsa-mir-449b]
Qualitative label: high
//
Item sequence: CUGUGAAUCCAAGAUCCACA [hsa-mir-4527]
Qualitative label: low
//
Item sequence: CCAAUGGUAUCCAGUGAUUCGUUGA [hsa-mir-4709]
Qualitative label: moderate
//
Item sequence: GUUAGUUGUGGACACAUACUAAC [hsa-mir-3912]
Qualitative label: moderate

Task: Entry GUUACUAAUCUAACUAAUUGUAAC [hsa-mir-582] belongs to which category?
Output: high

Task: Entry GAAAACUUUGGAGAAAAAUUUUC [hsa-mir-4659a] belongs to which category?
Output: moderate

Task: Entry UUGUGGCUUUGGGUGGAUAUUAAUCAGCCACAG [hsa-mir-383] belongs to which category?
Output: high

Task: Entry AUUCUGGAGUCCAUCUAGAG [hsa-mir-1182] belongs to which category?
Output: low
